Molecular target: High affinity choline transporter 1 (Homo sapiens) (UniProt Q9GZV3)
Sequence (Q9GZV3 whole entry, looked up): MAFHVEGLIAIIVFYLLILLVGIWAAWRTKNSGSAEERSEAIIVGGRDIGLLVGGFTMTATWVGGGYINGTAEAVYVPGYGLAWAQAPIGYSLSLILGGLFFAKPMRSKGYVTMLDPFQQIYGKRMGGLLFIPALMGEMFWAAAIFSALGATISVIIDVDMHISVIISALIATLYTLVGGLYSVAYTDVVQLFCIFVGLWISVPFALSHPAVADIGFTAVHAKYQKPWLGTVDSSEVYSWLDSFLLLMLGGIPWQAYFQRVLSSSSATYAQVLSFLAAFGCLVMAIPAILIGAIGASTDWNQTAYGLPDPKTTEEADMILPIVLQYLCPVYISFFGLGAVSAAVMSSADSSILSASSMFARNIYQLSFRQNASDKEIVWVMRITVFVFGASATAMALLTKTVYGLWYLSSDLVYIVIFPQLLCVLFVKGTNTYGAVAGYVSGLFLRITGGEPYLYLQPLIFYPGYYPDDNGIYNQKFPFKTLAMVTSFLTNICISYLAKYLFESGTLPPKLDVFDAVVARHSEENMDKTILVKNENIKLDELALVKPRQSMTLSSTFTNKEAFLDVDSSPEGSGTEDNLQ
Test: inhibitors of human choline transporter CHT (AID 488975)
Details: CHT-expressing cells, membrane potential dye, choline response, at 10 µM
Hit rate of the full screen: of about 310,000 compounds, about 2,600 (0.84%) were called active.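 Rule for the calls: active = B-score over 3 SD under the library average, and starting fluorescence ratio not unusually high; inactive = the rest.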 Only a selection was taken, and actives are over-represented in it overall.
Hello, when you answer, please use one of the following outcomes: active, inactive

Inquiry: What was the test verdict on O=C(Nc1cccc2cccnc12)c1cccc(N2C(=O)CCC2=O)c1 ?
Reply text: inactive

Inquiry: Try COc1ccc(C(=O)O)cc1S(=O)(=O)NCc1cccnc1 next.
Reply text: inactive

Inquiry: Try CC(C)C[C@H](CO)Nc1nc(N(C)c2cccc(Cl)c2)c2ncn(C(C)C)c2n1 next.
Reply text: inactive

Inquiry: Try Cc1ccc(-c2cc(=O)[nH]c(NCc3ccccc3)n2)cc1 next.
Reply text: inactive

Inquiry: Try OCCCNc1nccc(-c2cc(Nc3cccc(Cl)c3)ncn2)n1 next.
Reply text: inactive

Inquiry: Try Cc1nc2c(c(C)nn2-c2ccccc2)c(C)c1C next.
Reply text: inactive

Inquiry: Try O=C(Nc1cccc2cccnc12)c1cccc(Cl)c1 next.
Reply text: inactive

Inquiry: Try O=C(NC1CCCCC1)c1ccc(-c2ccc(Cl)cc2)o1 next.
Reply text: inactive

Inquiry: Try CC(C)Oc1ccc(S(=O)(=O)N2CCOCC2)cc1NC(=O)C1CSC2(C)CCC(=O)N12 (stereo unspecified) next.
Reply text: inactive

Inquiry: Try COc1ccccc1N(C)S(=O)(=O)c1ccc(Cl)c(C(=O)Nc2ccncc2)c1 next.
Reply text: inactive

Inquiry: Try CC(C)n1cnc2c(Nc3cccc(Cl)c3)nc(N(CCO)CCCO)nc21 next.
Reply text: active

###

Biological target: High affinity choline transporter 1 (Homo sapiens)
Assay: inhibitors of human choline transporter CHT (AID 488975)
Conditions: CHT-expressing cells, membrane potential dye, choline response, at 10 µM
Screen size: about 310,000 compounds; about 2,600 (0.84%) were called active.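 The calls were made as follows: active = B-score over 3 SD under the library average, and starting fluorescence ratio not unusually high; inactive = the rest.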 For the sample, actives were picked, then their nearest neighbours and some compounds at random.
Hello, when you answer, please use one of the following outcomes: TRUE for active, FALSE for inactive

Inquiry: What was the test verdict on O=C(NCCN1CCOCC1)c1ccc(/C=C2\Sc3ccccc3N(Cc3ccc(F)cc3)C2=O)cc1 ?
Reply text: FALSE

Inquiry: Try CCc1nccn1S(=O)(=O)c1cccc([N+](=O)[O-])c1 next.
Reply text: FALSE

Inquiry: Try O=C(Cc1ccc(S(=O)(=O)N2CCOCC2)s1)NCCOc1ccccc1F next.
Reply text: FALSE

Inquiry: Try CN1CCN(CCCNC(=O)c2ccc(/C=C3\Oc4ccccc4N(Cc4ccc(Cl)cc4)C3=O)cc2)CC1 next.
Reply text: TRUE

Inquiry: Try COc1ccc(NC(=O)CN(C)C(=O)Cc2coc3cc(C)c(C)cc23)cc1 next.
Reply text: FALSE

###

Molecular target: High affinity choline transporter 1 (Homo sapiens) (UniProt Q9GZV3)
Test: inhibitors of human choline transporter CHT (AID 488975)
Details: CHT-expressing cells, membrane potential dye, choline response, at 10 µM
The campaign covered roughly 310,000 compounds. About 2,600 (0.84%) were called active.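 How the source made its calls: active means B-score over 3 SD under the library average, and starting fluorescence ratio not unusually high; inactive means the rest.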 Only a selection was taken, and actives are over-represented in it overall.
Hello, when you answer, please use one of the following outcomes: yes (1) for active, no (0) for inactive

Inquiry: What was the test verdict on CC(=O)c1ccc(Oc2cc(C)nc(-n3nc(C)cc3C)n2)cc1 ?
Reply text: yes (1)

Inquiry: Try COc1ccc(C(=O)NC(C)c2nccs2)cc1OC1CCN(C(C)C)CC1 (stereo unspecified) next.
Reply text: yes (1)

Inquiry: Try Cc1cc(NS(=O)(=O)c2ccc(NC(=O)C(C)Oc3cccc(C)c3C)cc2)nc(C)n1 (stereo unspecified) next.
Reply text: yes (1)

Inquiry: Try O=C(NNC(=O)c1cc(-c2ccccc2Cl)nc2ccccc12)c1csc(N2CCOCC2)n1 next.
Reply text: no (0)

Inquiry: Try CCCCn1c(N)c(N(CC(C)C)C(=O)c2ccc(-n3c(C)ccc3C)cc2)c(=O)[nH]c1=O next.
Reply text: no (0)

Inquiry: Try Cc1cc(NS(=O)(=O)c2ccc(NC(=O)c3cccnc3)cc2)nc(C)n1 next.
Reply text: no (0)

Inquiry: Try O=C(CCCCO)c1ccc(O)c(Cl)c1 next.
Reply text: no (0)

Inquiry: Try CCOC(=O)[C@H]1[C@H]2COc3ccc(Cl)cc3[C@@H]2N2C(=O)c3cc(C)ccc3NC(=O)[C@@]12C next.
Reply text: no (0)

Inquiry: Try COc1ccc(C(=O)NC2CC2)cc1OC1CCN(Cc2cnn(C)c2)CC1 next.
Reply text: no (0)

Inquiry: Try COc1ccc(C(=O)C2CCCN(C(=O)c3ccc(OC)o3)C2)c(C)c1 (stereo unspecified) next.
Reply text: no (0)

Inquiry: Try O=C(O)Cc1ccc(NCc2ccccc2Cl)cc1 next.
Reply text: no (0)

Inquiry: Try COc1ccccc1NC(=O)C(C)OC(=O)c1ccc(-n2cnnn2)cc1 (stereo unspecified) next.
Reply text: no (0)

Inquiry: Try COc1cc(OC)cc(C(=O)Nc2ccc(S(=O)(=O)Nc3cc(C)on3)cc2)c1 next.
Reply text: no (0)

Inquiry: Try Cc1ccc(S(=O)(=O)N2[C@@H](c3cccc(Cl)c3)C(C(=O)O)=CC[C@H]2c2ccc(Cl)c(Cl)c2)cc1 next.
Reply text: no (0)

Inquiry: Try Cc1noc(C)c1CSCC(=O)Nc1ccc(Br)cc1Cl next.
Reply text: no (0)

Inquiry: Try O=C(O)C1C2C=CC(C2)C1C(=O)NCc1ccccc1 (stereo unspecified) next.
Reply text: no (0)

Inquiry: Try O=C(O)CC1=C(Nc2ccccc2)C(=O)N(c2ccccc2)C1c1ccc(Cl)cc1 (stereo unspecified) next.
Reply text: yes (1)

Inquiry: Try Cc1cc(C)n(-c2ccc(Cl)c(C(=O)O)n2)n1 next.
Reply text: no (0)

Inquiry: Try COc1ccc(C2=NOC(Cn3nc(C(=O)NCc4ccc5c(c4)OCO5)cc3-c3ccccc3)C2)cc1 (stereo unspecified) next.
Reply text: no (0)

Inquiry: Try CCCCCCSc1ccc([C@@H]2[C@@H]3C(=O)N(CC)C(=O)[C@@H]3[C@]3(C(=O)OC)CCCCN23)cc1OC next.
Reply text: no (0)

Inquiry: Try Cc1cc(C)n(-c2cc(Oc3ccccc3)ncn2)n1 next.
Reply text: no (0)

All values here come from PubChem BioAssay AID488975.
